Test system: Bacillus subtilis DB104 (SP-AmyQ fusion secretion)
Assay overview: AmyQ secretion efficiency, weighted average sort bin (1 = best secretion, 10 = worst) (bin number (weighted average, 1-10)); higher = lower secretion efficiency
Categories are assigned from the measured AmyQ secretion efficiency using these intervals: low (below 3), mid (3 to below 6), high (6 or more)

QUERY: Please report the category associated with MKKVLMAFIICLSLILSVLAAPPSGCKAESV , nothing else.
RESULT: low

QUERY: Subsequent entry: MKKLLAAGIIGLLTVSIASPSFRAEK
RESULT: high

QUERY: Then this sequence: MRIFKKAVFVIMISFLIATVNVNTCHAAID
RESULT: mid

QUERY: And for MLKKIALTLCPAIVGSLLFFTKRKKRKASAHVS ?
RESULT: high

QUERY: // same read-out, input: MKRFSTAYLLLGILCSAAVFLIGAPSSALGAEV
RESULT: mid

QUERY: One more sequence: MMIKQCVICLSLLVFGTTASGTAHAEET
RESULT: low

QUERY: Thanks! And MRMLWRSLALCGLALTLAFLSVSLFFVPCAQAAEP ?
RESULT: low

QUERY: What do you have for MKRIRIPMTLALGAALTIAPLSFQSAEEN ?
RESULT: high

QUERY: Moving on to the next sequence: MNKKYFVLIVCIIFTSALFPTFSSATAAQG
RESULT: low

QUERY: MRMLWRSLALCGLALTLADDDCAQAAEP , same question.
RESULT: low

QUERY: Try this sequence next: MKKRLIAPMLLSAASLAFFAMSGSDQAAAY
RESULT: mid

QUERY: Please give the result for MFKKHQRRQRIIFLLASAVLAKPIEAHTV too.
RESULT: high

QUERY: // same read-out, input: MPYLKRVLLLLVTGLFMSLFAVTATVSAQTG
RESULT: low

QUERY: How about MKRLLSTLLIGIMLLTFAPSSFAKQD ?
RESULT: low

QUERY: Okay, and MRIFKKAVFVIMISFLIARRRKKRAHAAID ?
RESULT: high

QUERY: Now consider MKKVMLATALFLGLTPAGANARKR and answer again.
RESULT: high

QUERY: And for MKKWMAGLFLAAAVLLCLMVPQQIQGDED ?
RESULT: high

QUERY: And MLKKKWMVKRLAGCLAAGGFSYNAFATEN ?
RESULT: high

QUERY: Consider next the sequence MKKLVLCVSILAVILSGVQLTQLS in the same way.
RESULT: mid

QUERY: Request: MGLGKKLSVAVAASFMSLSISLSPGVQAAEG
RESULT: low

QUERY: Moving on to the next sequence: MKLAKRVKRRKRKTTLAITAKAKEL
RESULT: high

QUERY: Same question, MTSSGGMFIVFICFFVLFSVHPIAAAAADS this time
RESULT: high

QUERY: Now the same for MKKTIMSFVAVAALSTTAFGAHASRKEI
RESULT: mid

QUERY: MRFTKVVGFLSVLGLAAVFPLTAQTEKA ?
RESULT: mid

QUERY: Same question for MKKTIMSFVAVAALSTTAFEEDHASAKEI please.
RESULT: low

QUERY: Try this sequence next: MKLKKRVSMFKRRRTMCGGLFVTPAKAVKT
RESULT: high

QUERY: Please answer likewise for MKKLLAAGIIGLLTVSIASPCFAAEK
RESULT: low

QUERY: Same for MMSLLSTLLIGIMLLTFAPSAFAKQD
RESULT: low

QUERY: Same question for MKKRLIGFLVLVPALIMSGITLIEPNKK please.
RESULT: high

QUERY: Queued: MLCVMMLLFSAIASTPVSAQAKDQ
RESULT: mid

QUERY: Thanks! And MTKKFTIMSAWFLPLVCVLLISGWLAPAASASAQTT ?
RESULT: low

QUERY: Entry to check: MKKSQYFIVFICFFVLFSVHPIAAAFADS
RESULT: mid

QUERY: Next up: MKKGIIRFLLVSFVLFFALSTGITGVQHAPA
RESULT: mid

QUERY: Repeat with MLTKRLLTIYIMLLGLIAWFPGASQAEEK
RESULT: mid

QUERY: Another sequence to check: MKRLFMKASLVLFAVVFVFAVKGAPAKADEE
RESULT: low

QUERY: Request: MRKRQGSGYGGLMMFGTITAASASPD
RESULT: high

QUERY: Now this one: MFNRLFRRCYTSTLIMAFTLPNSVYAQKP
RESULT: mid

QUERY: Next sequence: MKSKWMSGLLLVAVGFSFTQVMVHARRR
RESULT: high

QUERY: Proceed to MTKKAKKKKLVCVLLISGWLAPAASASAQTT
RESULT: low

QUERY: // query: MKKIRRRKRKCLAALFTIGFPAQQADAAEA
RESULT: high

QUERY: Proceed to MAIIIAIIAAVIVIAALITFNVRNRSPG
RESULT: high

QUERY: Consider next the sequence MRKKCSKCKWSTTSLLSCLSGKSAYAATS in the same way.
RESULT: high

QUERY: // repeat for MKKRLIAPMLLSAASLAFFATFMSGSAQAAAY and report
RESULT: mid

QUERY: Thanks! And MKKTIMSFVAVAALSTTAFGAHCSAKEI ?
RESULT: low

QUERY: Next sequence up: MFKKLLLATSALTFSLSLVLPLDGHAKAQSV
RESULT: low

QUERY: Queued: MLIRKRRNFKRFIAAFLVLALMISLVPADVLAKST
RESULT: low

QUERY: Quick one: MRRGKKLSVAVAASFMSLSISLPGVQAAEG
RESULT: low
